# Test system: MDA-MB-435 melanoma
# protocol description: NCI-60 one-dose screen, 48 h
# measurement setup: 10 µM unless noted
Compounds without any hit were thinned out: in the full panel of roughly 83,000, 20% have a hit. Activity calls are given as the source filed them. How the source made its calls: active means growth percent below 10; inactive means the rest.
Possible outcomes: active, inactive

molecule	assigned class
COCCOC1=C(Cl)C(=O)c2ccccc2C1=O	active
COC(=O)[C@@H]1CCCN1C(=O)[C@@H]1CCCN1C(=O)[C@@H](Cc1c[nH]c2ccccc12)NC(=S)Nc1cc(C(F)(F)F)cc(C(F)(F)F)c1	active
COc1ccc(Nc2nc(NCCNc3ccnc4cc(Cl)ccc34)nc(N3CCOCC3)n2)cc1	inactive
O=C(c1cnn2c1NC(c1ccc(F)cc1)C2)N1CCCCC1 (stereo not given)	inactive
CCCCCCCC/C=C\CCCCCCCCOc1cccc(CC(=O)NCC[N+]2(C)CCCC2)c1	inactive
CN1CCN(C)c2cncc(Br)c2C1=O	active
CCCCCCCC/C=C\CCCCCCCCOc1cccc(CC(=O)NCC[N+]2(C)CCOCC2)c1	inactive
COc1cc(Cn2cc(F)c(=O)[nH]c2=O)cc(OC)c1	inactive
c1ccc2cc(-c3n(Cc4ccc5ccccc5n4)c4ccccc4[n+]3Cc3ccc4ccccc4n3)ccc2c1	active
COc1ccc(-c2cc(=O)oc3c4c(ccc23)OCN(Cc2ccc(F)cc2)C4)cc1	inactive
ONc1nc(NO)c2[nH]cnc2n1	inactive
O=C(N/N=C(\CS(=O)(=O)c1ccccc1)c1cc2cc(Br)ccc2oc1=O)c1ccccc1	inactive
COc1ccc(/C=N/NC(=O)c2cnn3c2NC(c2ccccc2)C3)cc1OC1CCCC1 (stereo not given)	inactive
CCCCCCCC/C=C\CCCCCCCCOc1cccc(CC(=O)NCC[N+](C)(C)C)c1	inactive
COc1ccc(/C=C(\C#N)c2ccc(OC)cc2)cc1	active
CC[Si](CC)(CC)OC1[C@@H](O[Si](CC)(CC)CC)[C@@H](CNC(=O)NC)O[C@H]1n1cnc2c(NC(=O)Nc3ccccc3)ncnc21 (stereo not given in full)	inactive
CCSc1nnc2c3cc(Br)ccc3n(C)c2n1	inactive
O=c1[nH]c(-c2ccccn2)nc2sc3c(c12)CCCCCC3	inactive
c1ccc2cc(Cn3c(-c4ccc5ccccc5c4)[n+](Cc4ccc5ccccc5c4)c4ccccc43)ccc2c1	active
O=C(c1ccc2ncc(-c3nc(NC4CC4)ncc3F)n2c1)N1CCOCC1	inactive

----------
# Tested on: MCF7 breast
# protocol description: NCI-60 one-dose screen, 48 h (100 = growth as untreated, 0 = no growth, -100 = all killed)
# measurement setup: 10 µM unless noted
About 83,000 compounds went through this panel and 20% of them were active in at least one assay; those are over-represented in the sample as a whole.
measured endpoint: growth (%)

>>> print(df.to_string())
                                   molecule  measure_unit  test_result
0  C[C@@H](Oc1cc(-c2cnn(C3CC4(CNC4)C3)c2)cnc1N)c1c(Cl)ccc(F)c1Cl             %         9.06
1  COc1cc(OCc2cccc(-c3ccc(C(O)c4nccs4)cc3)c2C)cc(OC)c1C=O (stereo not given)             %         7.09
2        COc1ccccc1/C=C/C(=O)/C=C/c1ccccc1O             %        -18.6
3  Cc1cc(NS(=O)(=O)c2ccc(NC(=O)COc3ccc(-c4cc5ccccc5[nH]4)cc3)cc2)no1             %          1.1
4      C=CC[P+](c1ccccc1)(c1ccccc1)c1ccccc1             %         27.2
5  COc1ccc(-c2[nH]ncc2Nc2cc(OC)c(OC)c(OC)c2)cc1             %         23.1
6  COc1cc(/C=N/NC(=O)c2cnn3c2NC(c2ccccc2)C3)cc(OC)c1OC (stereo not given)             %         34.9
7  C[C@]1(CO)C[C@@H](O)C[C@]2(C)[C@@H]1CC[C@@]13C[C@@H]4[C@@H](C[C@H]12)[C@]4(C)C3             %          102
8  CCCCOC(=O)C1OC(Oc2ccc3c(C)cc(=O)oc3c2)[C@@H](OC(C)=O)C(OC(C)=O)C1OC(C)=O (stereo not given in full)             %         91.5
9              COc1cccc(OC)c1OC(=O)c1ccccc1             %          101
